// provenance: the supplement of paper PMC11061612

# combination Emax per entry
- System: HCC70 (Breast Carcinoma)
- measurement-description: combination Emax (second highest fraction inhibited in the dose matrix, 72 h); higher = more inhibition; extreme values may be limits of the assay

| molecule | combination Emax |
| --- | --- |
| C[C@@H]1COCCN1c1cc(C2([S@](C)(=N)=O)CC2)nc(-c2ccnc3[nH]ccc23)n1 [AZD6738] + C1CC(C1)(C(=O)[O-])C(=O)[O-].N.N.[Pt+2] [Carboplatin] (first compound max 10 µM, 7x7, partner max 10 µM) | 0.763 |
| NC1(C(=O)N[C@@H](CCO)c2ccc(Cl)cc2)CCN(c2ncnc3[nH]ccc23)CC1 [Capivasertib] + CCN(CCO)CCCOc1ccc2c(Nc3cc(CC(=O)Nc4cccc(F)c4)[nH]n3)ncnc2c1 [AZD2811] (first compound max 10 µM, 7x7, partner max 1 µM) | 0.745 |
| CN(CCO)CC[C@H](CSc1ccccc1)Nc1ccc(S(=O)(=O)NC(=O)c2ccc(N3CCC([C@@H](O)c4ccccc4-c4ccc(Cl)cc4)CC3)cc2)cc1S(=O)(=O)C(F)(F)F [AZD4320] + Cc1cc2ncnn2cc1Nc1ncc2c(n1)n(C1CCOCC1)c(=O)n2C [AZD7648] (first compound max 1 µM, 7x7, partner max 10 µM) | 0.356 |
| COc1cccc(OCCCN)c1-c1cc(Nc2cnc(C#N)cn2)n[nH]1 [Prexasertib] + C=CCn1c(=O)c2cnc(Nc3ccc(N4CCN(C)CC4)cc3)nc2n1-c1cccc(C(C)(C)O)n1 [AZD1775] (first compound max 1 µM, partner max 1 µM) | 0.955 |
